molecular target: T1, Recombinant soluble E protein (0.8E-His) from DENV-3 (DENV-3, UniProt P27915 281-673)
T1 construct: also called DENV-3 E protein; DV3
The binders listed here are annotated with their Kd.
measure: Kd (pM)

binder | measure unit | measurement
DG_3CH992-SG182/3CL-SK1 (antibody, V domains shown) VH: QVQLVQSGAEVKKPGASVKVSCKASGYTFTSYYIHWVRQAPGQGLEWMGVINPRGGSRRSAQKFQGRVTMTRDTSTSTVYMELSSLRSEDTAVYYCARGGRALFYDSYTTPFDGGSWWFDPWGQGSLVTVSS VL: DIQLTQSPSSLSASVGDRVTFTCQASQDIRKYLNWYQQKPGKAPKLLIYDASNLKTGVPSRFSGSGSGTDFTFTISSLQPEDVATYYCQQFDDLPITFGQGTRLQIKR | pM | 4.03
DG_3CH1046-SG182/3CL633-SK1 (antibody, V domains shown) VH: QVQLVQSGAEVKKPGASVKVSCKASGYTFTSYYMHWVRQAPGQGLEWMGVINPRGGSRRSAQKFQGRVTMTRDTSTSTVYMELSSLRSEDTAVYYCARGGRALFYDSYTTPFDGGSWWFDPWGQGSLVTVSS VL: DIQLTQSPSSLSASVGDRVTITCQASQDIRKYLNWYQQKPGKAPKLLIYDASNLKTGVPSRFSGSGSGTDFTLTISSLQPEDVATYYCQQFDDLPITFGQGTRLQIKR | pM | 0.201
DG_3CH1047-SG182/3CL633-SK1 (antibody, V domains shown) VH: QVQLVQSGPDVEKPGASVKVSCKASGYTFTSYYMHWVRQAPGQGLEWMGVINPRGGSRRSAQKFQGRITMTRDTSTSTVYMELSSLRSEDTAVYYCARGGEALFYDSYTTPFDGGSWWFDPWGQGSLVTVSS VL: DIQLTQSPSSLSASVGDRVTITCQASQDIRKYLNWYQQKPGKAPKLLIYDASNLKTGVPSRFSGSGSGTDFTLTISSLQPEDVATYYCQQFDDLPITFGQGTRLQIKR | pM | 0.437
